- Procedure Summary: qHTS of pediatric cancer cell lines to identify multiple opportunities for drug repurposing: Confirmatory screen for RD cells (AID 1347124);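 further: cells exposed to compound for 48 h before viability readout; nearly all actives have a fitted effect of over 65% in size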
- Measurement Conditions: RD rhabdomyosarcoma cell viability; series mostly up to 45.9 µM
Records with an inconclusive call do not appear. Activity calls are given as the source filed them. The call rests on the fitted dose curve; in most records, active means well fitted cell-killing curve with a large enough effect; inconclusive means small, poorly fitted or top-dose-only effect, or effect the other way; inactive means no such curve, though single readings can be large or run the other way.
Give one outcome, nothing more. List: 1 (yes) = active, 0 (no) = inactive

Past entries and their recorded results:
CC(C)Cc1ccc(C(C)C(=O)O)cc1 (stereo not given) ... 1 (yes)
CN1CCN(CCCN2c3ccccc3Sc3ccc(Cl)cc32)CC1 ... 1 (yes)
CN(Cc1cnc2nc(N)nc(N)c2n1)c1ccc(C(=O)N[C@@H](CCC(=O)O)C(=O)O)cc1 ... 1 (yes)
Clc1ccc(C(c2ccccc2Cl)C(Cl)Cl)cc1 (stereo not given) ... 0 (no)

Switching to the query record.
Recorded call for "CCC1(c2ccccc2)C(=O)NCNC1=O" ?
0 (no)
